// data source = ChEMBL document CHEMBL1131530

- testedTarget: Bifunctional dihydrofolate reductase-thymidylate synthase (Toxoplasma gondii, UniProt Q07422)
- Sequence (Q07422 whole entry): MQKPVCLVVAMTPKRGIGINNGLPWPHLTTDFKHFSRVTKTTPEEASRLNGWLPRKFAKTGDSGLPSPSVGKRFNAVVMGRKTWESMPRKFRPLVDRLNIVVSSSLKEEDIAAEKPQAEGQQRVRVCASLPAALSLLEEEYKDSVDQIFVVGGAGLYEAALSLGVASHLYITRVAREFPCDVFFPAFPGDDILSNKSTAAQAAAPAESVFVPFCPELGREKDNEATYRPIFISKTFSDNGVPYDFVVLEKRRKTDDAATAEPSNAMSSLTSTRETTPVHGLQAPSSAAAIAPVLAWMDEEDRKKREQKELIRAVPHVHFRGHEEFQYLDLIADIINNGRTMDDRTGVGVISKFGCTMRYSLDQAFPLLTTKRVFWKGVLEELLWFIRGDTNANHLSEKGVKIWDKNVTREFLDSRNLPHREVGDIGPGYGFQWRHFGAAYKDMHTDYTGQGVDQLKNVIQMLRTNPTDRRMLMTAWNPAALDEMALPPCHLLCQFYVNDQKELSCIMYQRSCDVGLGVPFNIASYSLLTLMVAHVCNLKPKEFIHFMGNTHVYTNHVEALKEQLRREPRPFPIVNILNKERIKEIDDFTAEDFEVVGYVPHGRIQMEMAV
Field: pIC50. Provide a value for each of the molecules that follow.
Scale: negative log10 of molar concentration, which is what pIC50 denotes.

Would you kindly share the measured pIC50 for `Nc1nc(N)c2c3c(oc2n1)CN(Cc1c(Cl)cccc1Cl)CC3` ?
4.50

Would you kindly share the measured pIC50 for `Nc1nc(N)c2c3c(oc2n1)CN(Cc1ccccc1)CC3` ?
5.85

Would you kindly share the measured pIC50 for `Nc1nc(N)c2c3c(oc2n1)CN(Cc1ccc(Cl)c(Cl)c1)CC3` ?
4.65

Would you kindly share the measured pIC50 for `Nc1nc(N)c2c3c(oc2n1)CN(Cc1ccc(C(=O)N[C@@H](CCC(=O)O)C(=O)O)cc1)CC3` ?
4.67

Would you kindly share the measured pIC50 for `Nc1nc(N)c2c3c(oc2n1)CN(Cc1ccc(Cl)cc1Cl)CC3` ?
4.88
